- Tested on: primary rat microglia
- CONDITION_SET: rat
PARAMETER: LPS % cell toxicity (%)
Output spec: scalar in %, unitless text.

Report measured LPS % cell toxicity; entry is OCc1ccccn1
1

Specify reported LPS % cell toxicity for the compound shown: NNCCc1ccccc1
0

Recall and state the measured LPS % cell toxicity for NC12CC3CC(CC(C3)C1)C2 .
0

Retrieve LPS % cell toxicity measured for OC(Cn1cncn1)(Cn1cncn1)c1ccc(F)cc1F and print it.
0

Specify LPS % cell toxicity for FCOC(C(F)(F)F)C(F)(F)F and stop.
1

Entry O=C(Oc1cccc2cccnc12)c1ccccc1 needs its LPS % cell toxicity filled in; supply it.
0

Supply reported LPS % cell toxicity belonging to this compound: C/C=C(/C(=C/C)c1ccc(O)cc1)c1ccc(O)cc1
0

Respond only with LPS % cell toxicity recorded for Cc1ccc(O)c([C@H](CCN(C(C)C)C(C)C)c2ccccc2)c1
0

Complete the entry with LPS % cell toxicity for CC(C)NCC(O)COc1cccc2ccccc12 (centres unmarked) [Propranolol]
0

Specify reported LPS % cell toxicity for the compound shown: CNC(=O)Oc1ccccc1OC(C)C
0

Hello, please tell me recorded LPS % cell toxicity for this one: CC(C)(C)NCC(O)c1cc(Cl)c(N)c(Cl)c1 (centres unmarked)
0

###

- System: LPS-induced microglia activation
- METHOD: Image-based assay of LPS-induced microglia activation (HTS and dose response)
- Assay type: cell-based, rat
- CONDITION_SET: Rattus norvegicus, Microglia, dose response, LPS-induced microglia activation; read-out: LPS IC50
Where a name gives a salt, the structure may show the parent alone.
Give IC50 for every item shown.
The answer is to be given in nM; state only the numeric part.

Give a short answer stating reported IC50 for CCN(CC)C(=O)C1(c2ccccc2)CC1CN (stereo not drawn) [Milnacipran hydrochloride, reference compound] .
20000

Provide IC50 value for the following compound: CC[C@]1(O)C[C@@H]2CN(CCc3c([nH]c4ccccc34)[C@@](C(=O)OC)(c3cc4c(cc3OC)N(C)[C@H]3[C@@](O)(C(=O)OC)[C@H](OC(C)=O)[C@]5(CC)C=CCN6CC[C@]43[C@@H]65)C2)C1 [Vinblastine sulfate, reference compound]
200

Input CC[C@@H](C(=O)[C@@H](C)[C@@H](O)[C@H](C)[C@@H]1O[C@@H]([C@@H](CC)C(=O)O)CC[C@@H]1C)[C@H]1O[C@]2(C=C[C@@H](O)[C@]3(CC[C@@](C)([C@H]4CC[C@](O)(CC)[C@H](C)O4)O3)O2)[C@H](C)C[C@@H]1C [Salinomycin, sodium, reference compound] , output reported IC50.
2000

###

Would you kindly list IC50 for each of these compounds?
- METHOD: in vitro
- CONDITION_SET: rat, Cell Toxicity IC50 (uM) [cFib assay], cFib assay
Structures can show the parent of a compound that is named as a salt.

Given COc1cc([C@@H]2c3cc4c(cc3[C@@H](O[C@@H]3O[C@@H]5CO[C@@H](c6cccs6)O[C@H]5[C@H](O)[C@H]3O)[C@H]3COC(=O)[C@H]23)OCO4)cc(OC)c1O [Teniposide, reference compound] , respond with its IC50.
20 µM

Hello, please tell me recorded IC50 for this one: C1CCC(C(CC2CCCCN2)C2CCCCC2)CC1 (stereo not shown) [Perhexiline maleate, reference compound]
20 µM

Determine its reported IC50: c1ccc2c(c1)OCC(C1=NCCN1)O2 (stereo not shown) [Idazoxan hydrochloride, reference compound]
> 20 µM

For the compound O=P(O)(O)C(O)(Cc1cccnc1)P(=O)(O)O [Risedronate sodium, reference compound] , give its reported IC50.
> 20 µM

// Input: CC1(C)O[C@@H]2C[C@H]3[C@@H]4C[C@H](F)C5=CC(=O)C=C[C@]5(C)[C@H]4[C@@H](O)C[C@]3(C)[C@]2(C(=O)CO)O1 [Flunisolide, reference compound] . Output its IC50 only.
> 20 µM

Find the measured IC50 of O=C(NC(Cc1cc(=O)[nH]c2ccccc12)C(=O)O)c1ccc(Cl)cc1 (stereo not shown) [Rebamipide, reference compound] and report it.
> 20 µM

For the compound COc1ccccc1N1CCN(CC(O)COc2cccc3ccccc23)CC1 (stereo not shown) [Naftopidil dihydrochloride, reference compound] , give its reported IC50.
> 20 µM

Dear colleague, please send me the reported IC50 for O=c1[nH]cc(F)c(=O)[nH]1 [Fluorouracil, reference compound] when you can.
> 20 µM

Could you please provide reported IC50 for CC(C)(C)NC(=O)[C@@H]1C[C@@H]2CCCC[C@@H]2CN1C[C@@H](O)[C@H](Cc1ccccc1)NC(=O)[C@H](CC(N)=O)NC(=O)c1ccc2ccccc2n1 [Saquinavir, reference compound] ? Thanks!
> 20 µM

Give the measured IC50 for C[C@H]1C[C@@H]2[C@H]([C@@H](O)C[C@@]3(C)[C@H]2CC[C@]3(O)C(=O)CO)[C@@]2(C)C=CC(=O)C=C12 [Methylprednisolone, reference compound]
> 20 µM

State its IC50: Cc1cccc(C)c1NC(=O)c1ccccc1C(=O)O [Ftaxilide, reference compound]
> 20 µM

Give the reported value of IC50 for this record: CN1CCN2c3ncccc3Cc3ccccc3C2C1 (stereo not shown) [Mirtazapine, reference compound]
> 20 µM

Specify measured IC50 for CCCCC1=NC2(CCCC2)C(=O)N1Cc1ccc(-c2ccccc2-c2nnn[nH]2)cc1 [Irbesartan, reference compound] .
> 20 µM

###

- Test system: fibrin-induced microglia activation
- METHOD: Image-based assay of fibrin-induced microglia activation (HTS and dose response)
- Assay type: cell-based, rat
- CONDITION_SET: primary microglia HTS, fibrin stimulation, activation = cell size >800 μm2
PARAMETER: Fibrin % inhibition
Don't forget the unit after the number, please.

Answer with the recorded Fibrin % inhibition for the compound listed here: CC(C)(C)NC[C@H](O)COc1cccc2c1CCCC2=O [Levobunolol]
−28%

Indicate the recorded Fibrin % inhibition value for this compound: CC(=O)O[C@H]1C[C@H](O[C@H]2[C@@H](O)C[C@H](O[C@H]3[C@@H](O)C[C@H](O[C@H]4CC[C@@]5(C)[C@H](CC[C@@H]6[C@@H]5C[C@@H](O)[C@]5(C)[C@@H](C7=CC(=O)OC7)CC[C@]65O)C4)O[C@@H]3C)O[C@@H]2C)O[C@H](C)[C@H]1O[C@@H]1O[C@H](CO)[C@@H](O)[C@H](O)[C@H]1O [Lanatoside C]
17%

Report Fibrin % inhibition for CCC[C@@H]1C[C@@H](C(=O)N[C@@H]([C@H]2O[C@H](SC)[C@H](O)[C@@H](O)[C@H]2O)[C@@H](C)O)N(C)C1 [Lincomycin]
−29%

###

- System: primary rat microglia
- METHOD: Cell toxicity (dead cells, size <150 μm2) in coated fibrin (cFib) assay;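 for Fibrin % cell toxicity: share of dead cells sized under 150 µm2 at 10 µM in fibrin-stimulated microglia HTS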
- CONDITION_SET: primary microglia HTS, 10 μM, fibrin assay, cell size <150 μm^2 as marker of toxicity
Counter-ions that a name gives are not always drawn.
PARAMETER: Fibrin % cell toxicity (%)
Numeric only. Scale: %

Under primary rat microglia: report Fibrin % cell toxicity of CC1=C(CC(=O)O)c2cc(F)ccc2/C1=C\c1ccc(S(C)(=O)=O)cc1 [Sulindac Sulfone] .
1

Supply Fibrin % cell toxicity measured with primary rat microglia for COc1cccc(C2(O)CCCCC2CN(C)C)c1 (stereo not shown) [Tramadol Hydrochloride] .
0

For primary rat microglia, give the measured Fibrin % cell toxicity of the entry CC1(O)CCC(C(C)(C)O)CC1.O (stereo not shown) [Terpene Hydrate]
1

Answer with Fibrin % cell toxicity of CCN1CCCC1CNC(=O)c1cc(S(N)(=O)=O)ccc1OC (stereo not shown) [Sulpiride] measured for primary rat microglia.
1

Tell me Fibrin % cell toxicity of Cc1cccc(C)c1NC(=O)C(C)N (stereo not shown) [Tocainide] when tested on primary rat microglia.
1

Give reported Fibrin % cell toxicity for CCOc1ccccc1OCCN[C@H](C)Cc1ccc(OC)c(S(N)(=O)=O)c1.Cl [Tamsulosin Hydrchloride] (primary rat microglia)
0

Jot down Fibrin % cell toxicity (primary rat microglia) of CC(C)[C@H](N)C(=O)OCCOCn1cnc2c(=O)[nH]c(N)nc21 [Valaciclovir] .
1

Using primary rat microglia as the test system, report measured Fibrin % cell toxicity of Cc1scc2c1N(C(=O)CN1CCN(C)CC1)c1ccccc1NC2=O .
1

Param request: Fibrin % cell toxicity | system primary rat microglia | item CC(C)N1CCN(c2ccc(OCC3COC(Cn4cncn4)(c4ccc(Cl)cc4Cl)O3)cc2)CC1 (stereo not shown) [Terconazole]
1

# lookup: primary rat microglia Fibrin % cell toxicity, key = CCCCC1(COC(=O)CCC(=O)O)C(=O)N(c2ccccc2)N(c2ccccc2)C1=O [Suxibuzone]
1

Write down the reported Fibrin % cell toxicity (system: primary rat microglia) of Cc1noc(NS(=O)(=O)c2ccc(N)cc2)c1C [Sulfisoxazole]
0

Retrieve Fibrin % cell toxicity on primary rat microglia; query NC(N)=O [Urea]
1

Give Fibrin % cell toxicity for COC(=O)[C@@H]1[C@H]2C[C@H]3c4[nH]c5ccccc5c4CCN3C[C@@H]2CC[C@@H]1O [Yohimbine] tested on primary rat microglia.
1

Would you please give the reported Fibrin % cell toxicity of c1ccc2c(c1)CCCC2C1=NCCN1 (stereo not shown) [Tetryzoline] with primary rat microglia?
0

System primary rat microglia. Read-out Fibrin % cell toxicity. Item C=CC[C@@H]1/C=C(\C)C[C@H](C)C[C@H](OC)[C@H]2O[C@@](O)(C(=O)C(=O)N3CCCC[C@H]3C(=O)O[C@H](/C(C)=C/[C@@H]3CC[C@@H](O)[C@H](OC)C3)[C@H](C)[C@@H](O)CC1=O)[C@H](C)C[C@@H]2OC [Tacrolimus] . Report value.
1

Fill in: Fibrin % cell toxicity on primary rat microglia, entry O=C(O[C@H]1C[C@H]2CC[C@@H](C1)[N+]21CCCC1)C(O)(c1ccccc1)c1ccccc1 [Trospium Chloride]
0

Report Fibrin % cell toxicity from primary rat microglia testing of COc1cnc(NS(=O)(=O)c2ccc(N)cc2)nc1 [Sulfameter]
1

Answer with Fibrin % cell toxicity of O=c1oc2cc(O)ccc2s1 [Thioxolone, Tioxolone] measured for primary rat microglia.
0

Name the recorded Fibrin % cell toxicity of Cc1cc(C(C)(C)C)cc(C)c1CC1=NCCN1 [Xylometazoline] , assay system primary rat microglia.
0

Send back primary rat microglia Fibrin % cell toxicity of CC(C)OC(=O)CCC/C=C\C[C@@H]1[C@@H](/C=C/[C@@H](O)COc2cccc(C(F)(F)F)c2)[C@H](O)C[C@@H]1O [Travoprost] only.
1

Check primary rat microglia data and give Fibrin % cell toxicity for C[C@@H]1O[C@@H](OC[C@H]2O[C@@H](Oc3c(-c4ccc(OCCO)c(OCCO)c4)oc4cc(OCCO)cc(O)c4c3=O)[C@H](O)[C@@H](O)[C@@H]2O)[C@H](O)[C@H](O)[C@H]1O [Troxerutin] .
0

Report value: Fibrin % cell toxicity, system: primary rat microglia, molecule: CC1(C)O[C@@H]2[C@@H](CO[C@@]3(COS(N)(=O)=O)OC(C)(C)O[C@@H]23)O1 [Topiramate]
1

Give the observed Fibrin % cell toxicity of CN1C(=O)OC(C)(C)C1=O [Trimethadione] for primary rat microglia.
1

Give Fibrin % cell toxicity for this entry on primary rat microglia: COc1cc(NS(=O)(=O)c2ccc(N)cc2)nc(OC)n1 [Sulfadimethoxine]
1

State Fibrin % cell toxicity on primary rat microglia. Entry: CCCOc1ccccc1-c1nc2nn[nH]c2c(=O)[nH]1 [Zaprinast]
1

Find Fibrin % cell toxicity for O=C1C(CC[S+]([O-])c2ccccc2)C(=O)N(c2ccccc2)N1c1ccccc1 (stereo not shown) [Sulfinpyrazone] on primary rat microglia and write it down.
1

GET Fibrin % cell toxicity where system = primary rat microglia and item = Cc1cn([C@H]2C=C[C@@H](CO)O2)c(=O)[nH]c1=O [Stavudine]
1

Write down the reported Fibrin % cell toxicity (system: primary rat microglia) of O=C(O)C1CSCN1 (stereo not shown) [Timonacic]
0

Check primary rat microglia data and give Fibrin % cell toxicity for CC(S)C(=O)NCC(=O)O (stereo not shown) [Tiopronin] .
1

System primary rat microglia. Read-out Fibrin % cell toxicity. Item CC(=O)O[C@H]1C[C@@H]2CC[C@@H]3[C@H](CC[C@@]4(C)[C@H]3C[C@H]([N+]3(C)CCCCC3)[C@@H]4OC(C)=O)[C@@]2(C)C[C@@H]1N1CCCCC1 [Vecuronium] . Report value.
1

Please respond with reported Fibrin % cell toxicity (system primary rat microglia) for COC(=O)[C@@H]1[C@H]2C[C@H]3c4[nH]c5ccccc5c4CCN3C[C@@H]2CC[C@@H]1O [Yohimbine Hydrochloride] .
1

Look up and report Fibrin % cell toxicity, with primary rat microglia as system, for CC(=O)OCC(COC(C)=O)OC(C)=O [Triacetin]
1

Provide Fibrin % cell toxicity, recorded with primary rat microglia, of Cc1c(C)c2c(c(C)c1O)CCC(C)(COc1ccc(CC3SC(=O)NC3=O)cc1)O2 (stereo not shown) [Troglitazone]
1

Please respond with reported Fibrin % cell toxicity (system primary rat microglia) for COc1ccccc1N1CCN(CCCNc2cc(=O)n(C)c(=O)n2C)CC1 [Urapidil Hydrochloride] .
1

src = patent US20210330611A1
